# max-OD450 values compiled below
- Target under test: T1, recombinant human CD3ε-ECD His protein (human, UniProt P07766 23-126)
- T1 construct: extracellular domain; also called human CD3ε-His; CD3ε antigen protein; not shown: His tag
- T1 sequence (P07766 23-126): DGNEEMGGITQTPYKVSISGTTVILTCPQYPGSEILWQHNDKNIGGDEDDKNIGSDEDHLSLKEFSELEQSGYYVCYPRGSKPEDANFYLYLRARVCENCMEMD
- Assay comment: ELISA, coated antigen
The response must be a number in OD450 with no trailing unit.

Worked examples, 3 binders total:
{"columns": ["Binder", "Display unit", "max-OD450"],
 "data": [
  ["6-35.22-H1-L1 humanized antibody (antibody, human IgG1, kappa, V domains shown) VH: EVQLVESGGGVVQPGRSLRLSCAASGFTFTDYYMSWVRQAPGKGLEWVAMSRNKAKGHTIEYSSSVKGRFTISRDNSKNTLYLQMNSLRAEDTAVYYCARDTYESYDGYFDVWGQGTTVTVSS VL: DIVMTQSPDSLAVSLGERATINCKSSQSLFNSRSRKNYLAWYQQKPGQTPKLLIYWASIRESGVPDRFSGSGSGTDFTLTISSLQAEDVAVYYCKQSYYLYTFGQGTKLEIKR", "OD450", 3.1],
  ["40G5c-hIgG1 (antibody, V domains shown) VH: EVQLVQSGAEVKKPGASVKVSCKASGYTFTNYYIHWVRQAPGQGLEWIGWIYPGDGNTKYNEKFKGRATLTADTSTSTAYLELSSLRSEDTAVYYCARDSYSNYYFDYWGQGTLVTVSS VL: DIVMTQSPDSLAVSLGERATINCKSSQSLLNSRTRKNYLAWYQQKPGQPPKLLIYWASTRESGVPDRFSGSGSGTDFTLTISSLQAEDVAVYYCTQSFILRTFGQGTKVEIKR", "OD450", 3.09],
  ["7-35.6-H2-L3 humanized antibody (antibody, human IgG1, lambda, V domains shown) VH: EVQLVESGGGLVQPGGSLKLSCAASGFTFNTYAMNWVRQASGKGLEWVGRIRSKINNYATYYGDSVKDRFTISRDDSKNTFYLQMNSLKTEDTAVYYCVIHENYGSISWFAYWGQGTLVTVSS VL: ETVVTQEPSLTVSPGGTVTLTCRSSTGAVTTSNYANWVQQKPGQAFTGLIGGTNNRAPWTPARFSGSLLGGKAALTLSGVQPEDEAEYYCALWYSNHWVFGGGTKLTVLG", "OD450", 3.12]
]}

Kindly consider the entry below.
[in] Identify measured max-OD450 associated with 5-7.13-H1a-L2 humanized antibody (antibody, human IgG1, kappa, V domains shown) VH: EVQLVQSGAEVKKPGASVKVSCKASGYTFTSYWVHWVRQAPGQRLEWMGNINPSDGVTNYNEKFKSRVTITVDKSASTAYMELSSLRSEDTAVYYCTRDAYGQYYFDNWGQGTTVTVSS VL: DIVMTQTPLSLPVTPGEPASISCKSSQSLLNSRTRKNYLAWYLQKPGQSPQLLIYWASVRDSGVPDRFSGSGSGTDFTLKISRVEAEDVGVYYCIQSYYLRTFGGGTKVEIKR
[out] 3.16
